assay endpoint: melting point

molecule: COC(=O)CCC(C)C1CCC2C3CCC4CC(O)(CSc5nc6ccccc6o5)CCC4(C)C3CC(O)C12C (centres unmarked)
assay endpoint: melting point
reported measurement: 75 °C (dec.)
--
molecule: CC(CCC(=O)O)C1CCC2C3CCC4CC(O)(CSc5nc[nH]n5)CCC4(C)C3CC(O)C12C (centres unmarked)
assay endpoint: melting point
reported measurement: 95.1 to 98.4 °C
--
molecule: CC(CCC(=O)O)C1CCC2C3CCC4CC(O)(CSc5nccn5C)CCC4(C)C3CC(O)C12C (centres unmarked)
assay endpoint: melting point
reported measurement: 119.9 °C (dec.)
--
molecule: COC(=O)CCC(C)C1CCC2C3CCC4CC(O)(CSc5nc6ccccc6s5)CCC4(C)C3CC(O)C12C (centres unmarked)
assay endpoint: melting point
reported measurement: 74.5 °C (dec.)
--
molecule: Cc1ccc2[nH]c(SCC3(O)CCC4(C)C(CCC5C4CC(O)C4(C)C(C(C)CCC(=O)O)CCC54)C3)nc2c1 (centres unmarked)
assay endpoint: melting point
reported measurement: 188.9 °C (dec.)
--
molecule: CC(CCC(=O)O)C1CCC2C3CCC4CC(O)(CSc5nc6ccccc6s5)CCC4(C)C3CC(O)C12C (centres unmarked)
assay endpoint: melting point
reported measurement: 106.2 °C (dec.)
--
molecule: CC(CCC(=O)O)C1CCC2C3CCC4CC(O)(CSc5ccncc5)CCC4(C)C3CC(O)C12C (centres unmarked)
assay endpoint: melting point
reported measurement: 119.6 °C (dec.)
--
molecule: COC(=O)CCC(C)C1CCC2C3CCC4CC(O)(CSc5nc6cc(C)ccc6[nH]5)CCC4(C)C3CC(O)C12C (centres unmarked)
assay endpoint: melting point
reported measurement: 112.1 °C (dec.)

Provenance of the data: paper PMC10856758
